Data origin, for the record: ChEMBL document CHEMBL3627702

Assay: AUC in Sprague-Dawley rat at 22 mg/kg, po QD measured on day 4
Assay type: ADME, organism-based
Settings: in vivo
measuredMetric: AUC

Consider the molecule "Cc1c(-c2noc(-c3cnc(OC(C)C)c(C#N)c3)n2)ccc2c1CCN(C(CO)CO)C2" and give its recorded AUC.
28800 ng·h/mL

---

Assay: Cmax in Sprague-Dawley rat at 22 mg/kg, po QD measured on day 4
Type: ADME, organism-based
Set-up: dose 22 mg/kg, route oral
Conditions: in vivo
measuredMetric: Cmax
Respond with the figure and its unit, in that order.

Consider the compound "Cc1c(-c2noc(-c3cnc(OC(C)C)c(C#N)c3)n2)ccc2c1CCN(C(CO)CO)C2" and give its recorded Cmax.
2.73 µg/mL

---

Assay: Cmax in Sprague-Dawley rat at 30 mg/kg, po QD measured on day 4
Assay type: ADME, organism-based
Parameters: dose 30 mg/kg, route oral
Conditions: in vivo
measuredMetric: Cmax (ng/mL)
Output spec: scalar in ng/mL, unitless text.

Record excerpt, results attached:
Cc1c(-c2noc(-c3ccc(OC(C)C)c(C#N)c3)n2)ccc2c1CCN(C(CO)CO)C2 790
Cc1c(-c2noc(-c3ccc(OC(C)C)c(C#N)c3)n2)ccc2c1CCN(C[C@H](O)CO)C2 500

Consider the compound "CC(C)Oc1ccc(-c2nc(-c3ccc4c(c3)CCN(C(CO)CO)CC4)no2)cc1C#N" and give its recorded Cmax.
1380

Consider the compound "Cc1c(-c2noc(-c3ccc(OC(C)C)c(C#N)c3)n2)ccc2c1CCN(C[C@@H](O)CO)C2" and give its recorded Cmax.
710

---

Recorded fold induction at 96 h for the following molecules
Test system: CYP1A1
Assay: Induction of CYP1A1 mRNA expression in Sprague-Dawley rat hepatic microsomes at 15 mg/kg, po QD for 4 days relative to control
Type: ADME, organism-based, Liver
Settings: read-out: FC

Cc1c(-c2noc(-c3ccc(OC(C)C)c(C#N)c3)n2)ccc2c1CCN(C(CO)CO)CC2 275

# context switch: different molecule, same fold induction at 96 h
State the measured fold induction at 96 h (CYP1A1) of "CC(C)Oc1ccc(-c2nc(-c3cccc4c3CCN(C(CO)CO)C4)no2)cc1C#N"
1.6

---

Experiment: Cmax in Sprague-Dawley rat at 17 mg/kg, po QD measured on day 1
Format: ADME, organism-based
Parameters: dose 17 mg/kg, route oral
Conditions: in vivo
measuredMetric: Cmax
Respond with the figure and its unit, in that order.

Consider the compound "Cc1c(-c2noc(-c3ccc(OC(C)C)c(C#N)c3)n2)cnc2c1CCN(C(CO)CO)C2" and give its recorded Cmax.
1610 ng/mL

---

Test system: CYP1A2
Assay: Induction of CYP1A2 mRNA expression in Sprague-Dawley rat hepatic microsomes at 15 mg/kg, po QD for 4 days relative to control
Assay type: ADME, organism-based, Liver
Conditions: read-out: FC
measuredMetric: fold induction at 96 h
Reply briefly: the number, and no unit.

Consider the compound "Cc1c(-c2noc(-c3ccc(OC(C)C)c(C#N)c3)n2)ccc2c1CCN(C(CO)CO)CC2" and give its recorded fold induction at 96 h.
1.9

Consider the compound "CC(C)Oc1ccc(-c2nc(-c3cccc4c3CCN(C(CO)CO)C4)no2)cc1C#N" and give its recorded fold induction at 96 h.
2

---

Test system: CYP1A1
Assay: Induction of CYP1A1 mRNA expression in Sprague-Dawley rat hepatic microsomes at 30 mg/kg, po QD for 4 days relative to control
Type: ADME, organism-based, Liver
Settings: read-out: FC
measuredMetric: fold induction at 96 h

State the measured fold induction at 96 h (CYP1A1) of "Cc1c(-c2noc(-c3ccc(OC(C)C)c(C#N)c3)n2)ccc2c1CCN(C[C@H](O)CO)C2"
64

---

Test: AUC in Sprague-Dawley rat at 17 mg/kg, po QD measured on day 1
Format: ADME, organism-based
Conditions: in vivo
measuredMetric: AUC
Respond with the figure and its unit, in that order.

Consider the compound "Cc1c(-c2noc(-c3ccc(OC(C)C)c(C#N)c3)n2)cnc2c1CCN(C(CO)CO)C2" and give its recorded AUC.
12900 ng·h/mL

---

Experiment: AUC in Sprague-Dawley rat at 17 mg/kg, po QD measured on day 4
Assay type: ADME, organism-based
Details: in vivo
measuredMetric: AUC
Respond with the figure and its unit, in that order.

Consider the molecule "Cc1c(-c2noc(-c3ccc(OC(C)C)c(C#N)c3)n2)cnc2c1CCN(C(CO)CO)C2" and give its recorded AUC.
16800 ng·h/mL

---

Recorded fold induction at 10 µM for the following molecules
Tested on: CYP1A1
Assay: Induction of CYP1A1 mRNA expression in rat hepatocytes at 10 uM by Taqman analysis relative to control
Type: ADME, cell-based, Hepatocyte
Conditions: read-out: FC

Record excerpt, results attached:
molecule	measuredMetric	experimentalValue
CC(C)Oc1ccc(-c2nc(-c3ccc4c(c3)CCN(CCCC(=O)O)CC4)no2)cc1C#N	fold induction at 10 µM	3
CC(C)Oc1ccc(-c2nc(-c3cccc4c3OCCN(CCCC(=O)O)C4)no2)cc1Cl	fold induction at 10 µM	5
Cc1c(-c2noc(-c3ccc(OC(C)C)c(C#N)c3)n2)ccc2c1CCN(CCC(=O)O)C2	fold induction at 10 µM	< 1
CC(C)Oc1ccc(-c2nc(-c3cccc4c3cnn4CCC(=O)O)no2)cc1Cl	fold induction at 10 µM	< 1

State the measured fold induction at 10 µM (CYP1A1) of CC(C)Oc1ncc(-c2nc(-c3cccc4c3OCCNC4CCCC(=O)O)no2)cc1Cl (stereo in doubt; 6)
43

---

Experiment: Intrinsic clearance in cynomolgus monkey liver microsomes by LC-MS/MS analysis
Type: ADME, Macaca fascicularis
measuredMetric: CLint scaled (mL/min/g)
Output spec: scalar in mL/min/g, unitless text.

Consider the compound "CC(C)Oc1ccc(-c2nc(-c3cccc4c3cnn4CCC(=O)O)no2)cc1Cl" and give its recorded CLint scaled.
11

---

Experiment: Cmax in Sprague-Dawley rat at 17 mg/kg, po QD measured on day 4
Assay type: ADME, organism-based
Set-up: dose 17 mg/kg, route oral
Details: in vivo
measuredMetric: Cmax (ng/mL)
Output spec: scalar in ng/mL, unitless text.

Consider the compound "Cc1c(-c2noc(-c3ccc(OC(C)C)c(C#N)c3)n2)cnc2c1CCN(C(CO)CO)C2" and give its recorded Cmax.
2170

---

Target: Sphingosine 1-phosphate receptor 1 (Homo sapiens)
Sequence (P21453 whole entry): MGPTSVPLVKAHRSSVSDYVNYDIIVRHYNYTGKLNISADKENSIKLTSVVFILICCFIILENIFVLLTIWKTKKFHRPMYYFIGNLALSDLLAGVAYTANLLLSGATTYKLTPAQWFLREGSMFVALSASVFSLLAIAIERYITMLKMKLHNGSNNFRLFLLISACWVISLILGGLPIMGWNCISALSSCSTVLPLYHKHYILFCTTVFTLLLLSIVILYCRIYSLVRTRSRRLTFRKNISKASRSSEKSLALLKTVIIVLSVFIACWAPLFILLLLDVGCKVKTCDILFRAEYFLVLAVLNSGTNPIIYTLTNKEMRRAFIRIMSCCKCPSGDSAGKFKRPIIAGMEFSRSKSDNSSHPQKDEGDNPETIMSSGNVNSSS
Assay: Agonist activity at S1P1 receptor (unknown origin) expressed in CHO-K1 cells assessed as beta-arrestin recruitment after 60 mins by chemiluminescence assay
Format: cell-based
Settings: in the assay text read “after 90 mins” for “after 60 mins”
measuredMetric: EC50 (nM)
Output spec: scalar in nM, unitless text.

State the measured EC50 (Sphingosine 1-phosphate receptor 1 (Homo sapiens)) of "Cc1c(-c2noc(-c3ccc(OC(C)C)c(C#N)c3)n2)ccc2c1CCN(C[C@@H](O)CO)C2"
7.94

---

Test system: CYP1A1
Assay: Induction of CYP1A1 mRNA expression in Sprague-Dawley rat hepatic microsomes at 17 mg/kg, po QD for 4 days relative to control
Format: ADME, organism-based, Liver
Settings: read-out: FC
measuredMetric: fold induction at 96 h
Reply briefly: the number, and no unit.

Consider the compound "Cc1c(-c2noc(-c3ccc(OC(C)C)c(C#N)c3)n2)cnc2c1CCN(C(CO)CO)C2" and give its recorded fold induction at 96 h.
0.9

---

Assay: Lipophilicity, log D of the compound at pH 7.4
Type: physicochemical
Conditions: buffer
measuredMetric: logD
Reply briefly: the number, and no unit.

Record excerpt, results attached:
Cc1c(-c2noc(-c3cnc(NC(C)C)c(C#N)c3)n2)ccc2c1CCN(C(CO)CO)CC2 2.44
Cc1c(-c2noc(-c3ccc(OC(C)C)c(C#N)c3)n2)ccc2c1CCN(C[C@@H](O)CO)C2 2.16
Cc1c(-c2noc(-c3ccc(OC(C)C)c(C#N)c3)n2)ccc2c1CCN(C[C@H](O)CO)CC2 2.36

Consider the compound "Cc1c(-c2noc(-c3ccc(OC(C)C)c(C#N)c3)n2)ccc2c1CCN(C(CO)CO)C2" and give its recorded logD.
2.76

Consider the compound "Cc1c(-c2nnc(-c3ccc(OC(C)C)c(C#N)c3)s2)ccc2c1CCN(C(CO)CO)C2" and give its recorded logD.
2.33

---

Assay: AUC in Sprague-Dawley rat at 19 mg/kg, po QD measured on day 1
Type: ADME, organism-based
Conditions: in vivo
measuredMetric: AUC (ng·h/mL)
Output spec: scalar in ng·h/mL, unitless text.

Cc1c(-c2nnc(-c3ccc(OC(C)C)c(C#N)c3)s2)ccc2c1CCN(C(CO)CO)C2 19100

# context switch: different molecule, same AUC
Consider the molecule "Cc1c(-c2noc(-c3ccc(OC(C)C)c(C#N)c3)n2)ccc2c1CCN(C[C@@H](O)CO)CC2" and give its recorded AUC.
20800

---

System: CYP1A1
Experiment: Induction of CYP1A1 mRNA expression in Sprague-Dawley rat hepatic microsomes at 25 mg/kg, po QD for 4 days relative to control
Type: ADME, organism-based, Liver
Settings: read-out: FC
measuredMetric: fold induction at 96 h
Reply briefly: the number, and no unit.

Cc1c(-c2noc(-c3ccc(OC(C)C)c(C#N)c3)n2)ccc2c1OCCN(C(CO)CO)C2 40

# context switch: different compound, same fold induction at 96 h
State the measured fold induction at 96 h (CYP1A1) of "Cc1c(-c2noc(-c3ccc(OC(C)C)c(C#N)c3)n2)ccc2c1CCN(C[C@H](O)CO)CC2"
215
